Hello, the source for this data is ChEMBL document CHEMBL1671783, in case you need it.

target: Apoptosis regulator Bcl-2 (Homo sapiens); assay: Binding affinity to Bcl-2
Sequence (P10415 whole entry): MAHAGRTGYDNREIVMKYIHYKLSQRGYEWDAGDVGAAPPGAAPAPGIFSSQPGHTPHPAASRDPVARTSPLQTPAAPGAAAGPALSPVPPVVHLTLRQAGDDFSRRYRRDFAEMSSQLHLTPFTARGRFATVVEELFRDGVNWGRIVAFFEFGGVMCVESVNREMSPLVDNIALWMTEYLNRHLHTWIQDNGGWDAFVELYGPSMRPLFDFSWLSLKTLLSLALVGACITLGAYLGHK
Readout label: Ki

Looking for the measured Ki of "N#CC1=C2C(=NC1=O)c1cccc3c(N4CCSCC4)ccc2c13" , can you help? 0.31 µM

---

biological target: Induced myeloid leukemia cell differentiation protein Mcl-1 (Homo sapiens, UniProt Q07820); assay: Binding affinity to Mcl-1
Sequence (Q07820 whole entry): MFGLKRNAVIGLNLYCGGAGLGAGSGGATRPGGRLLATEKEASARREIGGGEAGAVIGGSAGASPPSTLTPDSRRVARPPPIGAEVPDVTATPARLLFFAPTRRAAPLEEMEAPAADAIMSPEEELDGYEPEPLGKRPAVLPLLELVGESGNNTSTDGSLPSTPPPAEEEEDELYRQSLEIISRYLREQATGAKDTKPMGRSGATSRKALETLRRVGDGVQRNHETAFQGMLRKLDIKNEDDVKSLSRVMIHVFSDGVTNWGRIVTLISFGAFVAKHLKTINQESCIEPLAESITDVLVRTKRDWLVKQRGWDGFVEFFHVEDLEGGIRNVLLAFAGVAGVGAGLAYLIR
Readout label: Ki (nM)
The reply should be a number in nM, with the unit left off.

Looking for the measured Ki of "N#CC1=C2C(=NC1=O)c1cccc3c(N4CCSCC4)ccc2c13" , can you help? 58

---

molecular target: UniProt P10415; assay: Displacement of FAM-Bid from human recombinant Bcl-2 after 30 mins by ELISA
Readout label: pIC50
To interpret pIC50, take it as minus log10 of a concentration measured in moles per litre.

Recorded pIC50, per entry:
CCC(C)(C)c1ccc(Sc2ccc3c4c(cccc24)C2=NC(=O)C(C#N)=C23)cc1    6.47
N#CC1=C2C(=NC1=O)c1cccc3c(Sc4ccc(N)cc4)ccc2c13    6.52

Kindly consider the entry below.
Request body: readout pIC50, system UniProt P10415, query "N#CC1=C2C(=NC1=O)c1cccc3c(N4CCSCC4)ccc2c13" . Return the value. 6.55

---

Collected log10 Ki values appear next to each entry.
biological target: Induced myeloid leukemia cell differentiation protein Mcl-1 (Homo sapiens, UniProt Q07820); assay: Displacement of FAM-Bid from human Mcl-1 after 30 mins by fluorescence polarization assay
Hi team, quick reminder: these entries are log10 of Ki (nM).

CN(C)c1ccc(Oc2ccc3c4c(cccc24)C2=NC(=O)C(C#N)=C23)cc1    2.09
Cc1ccc(Sc2ccc3c4c(cccc24)C2=NC(=O)C(C#N)=C23)cc1    3.18
Cc1ccc(Oc2ccc3c4c(cccc24)C2=NC(=O)C(C#N)=C23)cc1    3.28
CCC(C)(C)c1ccc(Sc2ccc3c4c(cccc24)C2=NC(=O)C(C#N)=C23)cc1    2.98
CC(C)c1ccc(Sc2ccc3c4c(cccc24)C2=NC(=O)C(C#N)=C23)cc1    1.91
N#CC1=C2C(=NC1=O)c1cccc3c(Sc4ccc(-c5ccccc5)cc4)ccc2c13    2.93
CC(C)c1ccc(Oc2ccc3c4c(cccc24)C2=NC(=O)C(C#N)=C23)cc1    2.00
COc1ccc(Sc2ccc3c4c(cccc24)C2=NC(=O)C(C#N)=C23)cc1    2.18

Request body: readout log10 Ki, system Induced myeloid leukemia cell differentiation protein Mcl-1 (Homo sapiens, UniProt Q07820), query "N#CC1=C2C(=NC1=O)c1cccc3c(N4CCSCC4)ccc2c13" . Return the value. 1.79

Request body: readout log10 Ki, system Induced myeloid leukemia cell differentiation protein Mcl-1 (Homo sapiens, UniProt Q07820), query "CCC(C)(C)c1ccc(Oc2ccc3c4c(cccc24)C2=NC(=O)C(C#N)=C23)cc1" . Return the value. 2.99

---

system: SMMC-7721; assay: Cytotoxicity against human SMMC7721 cells expressing high level of Mcl-1 after 24 hrs by MTT assay; assay type: functional, cell-based; settings: SMMC-7721, 24 h
Collected pIC50 values appear next to each entry.
To interpret pIC50, take it as minus log10 of a concentration measured in moles per litre.

Recorded pIC50, per entry:
N#CC1=C2C(=NC1=O)c1cccc3c(Sc4ccc(N)cc4)ccc2c13    7.80
N#CC1=C2C(=NC1=O)c1cccc3c(Sc4ccc(Br)cc4)ccc2c13    6.74
CCC(C)(C)c1ccc(Sc2ccc3c4c(cccc24)C2=NC(=O)C(C#N)=C23)cc1    4.59

Kindly consider the entry below.
Looking for the measured pIC50 of "N#CC1=C2C(=NC1=O)c1cccc3c(N4CCSCC4)ccc2c13" , can you help? 6.72

---

target: Induced myeloid leukemia cell differentiation protein Mcl-1 (Homo sapiens, UniProt Q07820); experiment: Displacement of FAM-Bid from human Mcl-1 after 30 mins by fluorescence polarization assay
Readout label: Ki (nM)
The reply should be a number in nM, with the unit left off.

Recorded Ki, per entry:
N#CC1=C2C(=NC1=O)c1cccc3c(Sc4ccc(Br)cc4)ccc2c13    49
CN(C)c1ccc(Sc2ccc3c4c(cccc24)C2=NC(=O)C(C#N)=C23)cc1    91
COc1ccc(Oc2ccc3c4c(cccc24)C2=NC(=O)C(C#N)=C23)cc1    258

Kindly consider the entry below.
Request body: readout Ki, system Induced myeloid leukemia cell differentiation protein Mcl-1 (Homo sapiens, UniProt Q07820), query "N#CC1=C2C(=NC1=O)c1cccc3c(Oc4ccc(-c5ccccc5)cc4)ccc2c13" . Return the value. 1280
